Listing: IC50 of selected compounds
# target: Ephrin type-B receptor 2 (Homo sapiens)
# Sequence (P29323 whole entry): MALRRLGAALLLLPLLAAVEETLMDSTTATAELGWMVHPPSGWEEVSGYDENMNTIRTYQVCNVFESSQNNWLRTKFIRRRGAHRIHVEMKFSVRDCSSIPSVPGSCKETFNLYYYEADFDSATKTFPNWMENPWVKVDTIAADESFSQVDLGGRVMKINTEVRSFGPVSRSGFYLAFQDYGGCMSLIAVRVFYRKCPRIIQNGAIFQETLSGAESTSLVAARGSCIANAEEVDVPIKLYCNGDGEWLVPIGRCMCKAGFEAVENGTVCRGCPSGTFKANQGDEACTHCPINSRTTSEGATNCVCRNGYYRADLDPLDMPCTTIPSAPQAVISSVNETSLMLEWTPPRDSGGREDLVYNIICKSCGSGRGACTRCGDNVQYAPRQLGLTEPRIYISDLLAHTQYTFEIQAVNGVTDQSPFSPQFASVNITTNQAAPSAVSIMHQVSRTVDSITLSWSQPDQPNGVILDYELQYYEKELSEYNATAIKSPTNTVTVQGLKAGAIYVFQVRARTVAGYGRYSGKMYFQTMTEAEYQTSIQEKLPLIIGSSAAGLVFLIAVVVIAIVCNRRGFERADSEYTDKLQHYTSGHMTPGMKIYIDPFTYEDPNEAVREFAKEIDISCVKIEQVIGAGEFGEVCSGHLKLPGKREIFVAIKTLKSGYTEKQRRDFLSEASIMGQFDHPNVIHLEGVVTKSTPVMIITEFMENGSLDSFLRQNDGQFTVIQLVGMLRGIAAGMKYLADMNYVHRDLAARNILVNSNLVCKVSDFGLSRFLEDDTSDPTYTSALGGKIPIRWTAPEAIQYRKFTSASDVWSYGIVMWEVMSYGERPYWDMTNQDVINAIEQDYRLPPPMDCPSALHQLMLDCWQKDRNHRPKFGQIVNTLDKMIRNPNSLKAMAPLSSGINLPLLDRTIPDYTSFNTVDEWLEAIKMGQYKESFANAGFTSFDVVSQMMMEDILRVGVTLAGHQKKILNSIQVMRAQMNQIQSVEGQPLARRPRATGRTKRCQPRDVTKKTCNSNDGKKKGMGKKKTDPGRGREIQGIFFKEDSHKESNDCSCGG
# testDetails: Inhibition of EphB2 (unknown origin) using ATP and 5FAM tagged TrkA peptide substrate incubated for 60 mins by microfluidics assay

COc1ccc(-c2cncc(Oc3cccc(NC(=O)Nc4cc(C(C)(C)C)on4)c3)n2)cc1 | > 2000 nM

Report IC50 for "CC(C)(C)c1cc(NC(=O)Nc2cccc(Oc3cncc(-c4ccc(F)cc4)n3)c2)no1" please. > 2000 nM

The origin of these recorded values is ChEMBL document CHEMBL3596123.
